TEST_TARGET: purified recombinant human GAC (GLS1) (Homo sapiens, UniProt O94925)
Sequence (O94925 55-598 isoform O94925-3 limits assumed): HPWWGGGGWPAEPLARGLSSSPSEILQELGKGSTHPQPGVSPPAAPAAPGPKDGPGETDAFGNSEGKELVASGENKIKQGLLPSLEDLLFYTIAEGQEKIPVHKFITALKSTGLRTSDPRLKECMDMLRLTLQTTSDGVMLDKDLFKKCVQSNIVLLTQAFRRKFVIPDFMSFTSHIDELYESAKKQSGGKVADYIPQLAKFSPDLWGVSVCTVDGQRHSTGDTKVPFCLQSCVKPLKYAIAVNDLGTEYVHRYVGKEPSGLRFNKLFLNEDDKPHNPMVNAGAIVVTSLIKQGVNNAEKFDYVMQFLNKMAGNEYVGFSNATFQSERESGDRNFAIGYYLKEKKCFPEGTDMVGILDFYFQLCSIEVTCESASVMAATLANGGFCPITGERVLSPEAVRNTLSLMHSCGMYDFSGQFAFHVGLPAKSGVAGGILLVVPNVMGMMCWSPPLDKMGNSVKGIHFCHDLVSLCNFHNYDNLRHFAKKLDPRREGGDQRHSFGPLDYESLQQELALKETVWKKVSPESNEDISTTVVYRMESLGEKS
TEST_DESCRIPTION: GLS1 Enzymatic Activity Assay (dual-coupled enzymatic assay)
Overview of reported IC50 across a group of compounds:

# get_value(readout='IC50', item= CC(C)(O)c1ccc(CNC(=O)c2cn(CCCCc3cc4c(Br)c(C5CC5)[nH]c4nn3)nn2)cn1 ) < 0.1 µM

Data provenance is patent US20160002248A1.
